- experiment_notes: pharmacokinetics of GA metabolites in EHBRs orally treated with GA
- Format: in vivo, Eisai hyperbilirubinuria rats (EHBRs)
- assay_setup: Eisai hyperbilirubinuria rat (EHBR), plasma, female EHBRs, oral GA 200 mg/kg, 24 h after treatment, read-out: concentration in plasma sample
endpoint_label: concentration at 24 h (µM)
Expressed in µM, but write only the number.

QUERY: Can you look up the measured concentration at 24 h of CC1(C)[C@@H](OS(=O)(=O)O)CC[C@]2(C)[C@H]3C(=O)C=C4[C@@H]5C[C@@](C)(C(=O)O[C@@H]6O[C@H](C(=O)O)[C@@H](O)[C@H](O)[C@H]6O)CC[C@]5(C)CC[C@@]4(C)[C@]3(C)CC[C@@H]12 for me?
RESULT: 115

* * *

- experiment_notes: pharmacokinetics of GA metabolites in EHBRs orally treated with GA
- Format: in vivo, Eisai hyperbilirubinuria rats (EHBRs)
- assay_setup: Eisai hyperbilirubinuria rat (EHBR), plasma, male EHBRs, oral GA 200 mg/kg, 24 h after treatment, read-out: concentration in plasma sample
endpoint_label: concentration at 24 h

QUERY: Can you look up the measured concentration at 24 h of CC1(C)[C@@H](OS(=O)(=O)O)CC[C@]2(C)[C@H]3C(=O)C=C4[C@@H]5C[C@@](C)(C(=O)O[C@@H]6O[C@H](C(=O)O)[C@@H](O)[C@H](O)[C@H]6O)CC[C@]5(C)CC[C@@]4(C)[C@]3(C)CC[C@@H]12 [Compound 4] for me?
RESULT: 189 µM

* * *

- experiment_notes: binding of compound 4 to albumin in pooled EHBR plasma (ultrafiltration)
- Assay type: in vitro ADME, Eisai hyperbilirubinuria rats (EHBRs)
- assay_setup: female, Eisai hyperbilirubinuria rat (EHBR), rat, 200 mg/kg; pooled plasma of EHBRs 12 h after oral GA
- Method: Binding of Compound 4 to Albumin We measured the binding ratios of 4 to albumin in pooled plasma of female EHBRs using the same protocol used in our previous study ([Ishiuchi et al., 2019]). The pooled plasma samples collected from EHBRs 12 h after oral treatment with GA were loaded into ultracentrifuge filters with a 1 × 10^4 molecular weight cut-off and concentrated by centrifugation. The concentrations of 4 in the pooled plasma and the filtrate were 77 µM and undetectable, respectively. […]
endpoint_label: concentration at 12 h (µM)
Expressed in µM, but write only the number.

QUERY: Can you look up the measured concentration at 12 h of CC1(C)[C@@H](OS(=O)(=O)O)CC[C@]2(C)[C@H]3C(=O)C=C4[C@@H]5C[C@@](C)(C(=O)O[C@@H]6O[C@H](C(=O)O)[C@@H](O)[C@H](O)[C@H]6O)CC[C@]5(C)CC[C@@]4(C)[C@]3(C)CC[C@@H]12 [Compound 4] for me?
RESULT: 77

* * *

- experiment_notes: elimination of GA metabolites in SD rats intravenously injected with GA
- Assay type: in vivo, Sprague-Dawley (SD) rats
- assay_setup: female SD rats, GA iv, faeces collected 24 h after injection
endpoint_label: accumulative elimination in faeces (nmol)
Expressed in nmol, but write only the number.

# molecule, result_value
records = [
    ("CC1(C)[C@@H](OS(=O)(=O)O)CC[C@]2(C)[C@H]3C(=O)C=C4[C@@H]5C[C@@](C)(C(=O)O)CC[C@]5(C)CC[C@@]4(C)[C@]3(C)CC[C@@H]12 [Compound 3, 18β-glycyrrhetyl-3-O-sulfate]", 1.8),
    ("CC1(C)[C@@H](O)CC[C@]2(C)[C@H]3C(=O)C=C4[C@@H]5C[C@@](C)(C(=O)O)CC[C@]5(C)CC[C@@]4(C)[C@]3(C)CC[C@@H]12 [GA, glycyrrhetinic acid, reference compound]", 9.8),
]

QUERY: Can you look up the measured accumulative elimination in faeces of CC1(C)[C@@H](OS(=O)(=O)O)CC[C@]2(C)[C@H]3C(=O)C=C4[C@@H]5C[C@@](C)(C(=O)O)C[C@H](O)[C@]5(C)CC[C@@]4(C)[C@]3(C)CC[C@@H]12 [Compound 2, 22α-hydroxy-18β-glycyrrhetyl-3-O-sulfate] for me?
RESULT: 0.86
